# credit: ChEMBL document CHEMBL5376013

system: MDA-MB-231; assay: Antitumor activity against human MDA-MB-231 cells assessed as growth inhibition at 10 uM relative to control; format: functional; conditions: read-out: GI
measured.endpoint: inhibition of growth at 10 µM

// lookup inhibition of growth at 10 µM | system=MDA-MB-231 | key= CC1=NN(c2nc(-c3ccc(Cl)cc3)c(C#N)c(N3CCOCC3)n2)C(=O)C1
< 1%

// lookup inhibition of growth at 10 µM | system=MDA-MB-231 | key= N#Cc1c(-c2ccc(Cl)cc2)nc(N2NC(=O)CC2=N)nc1N1CCOCC1
< 1%

// lookup inhibition of growth at 10 µM | system=MDA-MB-231 | key= Cc1cc(C)n(-c2nc(-c3ccc(Cl)cc3)c(C#N)c(N3CCOCC3)n2)n1
28.8%

// lookup inhibition of growth at 10 µM | system=MDA-MB-231 | key= N#Cc1c(-c2ccc(Cl)cc2)nc(N/N=C/c2cccc(O)c2)nc1N1CCOCC1
< 1%

// lookup inhibition of growth at 10 µM | system=MDA-MB-231 | key= N#Cc1c(-c2ccc(Cl)cc2)nc(NN2C(=O)c3ccccc3C2=O)nc1N1CCOCC1
< 1%

====

target: Serine/threonine-protein kinase mTOR (Homo sapiens); assay: Inhibition of mTOR in human SR cells by Western blot analysis; type: cell-based
measured.endpoint: pIC50
Answer as the number alone; pIC50 is minus log10 of concentration in mol/L.

Endpoint output: pIC50 of N#Cc1c(-c2ccc(Cl)cc2)nc(N/N=C/c2cccc(Cl)c2)nc1N1CCOCC1 . Value?
6.99

====

tested on: MOLT-4; assay: Antitumor activity against human MOLT-4 cells assessed as growth inhibition at 10 uM relative to control; assay type: functional; conditions: read-out: GI
Give measured inhibition of growth at 10 µM for each item. Keep answers brief.
Report the value in % with no unit label.

Endpoint output: inhibition of growth at 10 µM of COc1cc(/C=N/Nc2nc(-c3ccc(Cl)cc3)c(C#N)c(N3CCOCC3)n2)cc(OC)c1OC . Value?
65.9

Endpoint output: inhibition of growth at 10 µM of Cc1cc(C)n(-c2nc(-c3ccc(Cl)cc3)c(C#N)c(N3CCOCC3)n2)n1 . Value?
13.3

Endpoint output: inhibition of growth at 10 µM of N#Cc1c(-c2ccc(Cl)cc2)nc(N/N=C/c2cccc([N+](=O)[O-])c2)nc1N1CCOCC1 . Value?
36.6

Endpoint output: inhibition of growth at 10 µM of N#Cc1c(-c2ccc(Cl)cc2)nc(N/N=C/c2cccc(F)c2)nc1N1CCOCC1 . Value?
25.9

Endpoint output: inhibition of growth at 10 µM of N#Cc1c(-c2ccc(Cl)cc2)nc(N/N=C/c2cccc(Br)c2)nc1N1CCOCC1 . Value?
63.9

Endpoint output: inhibition of growth at 10 µM of N#Cc1c(-c2ccc(Cl)cc2)nc(N/N=C/c2cccc(Cl)c2)nc1N1CCOCC1 . Value?
46.7

====

system: MDA-MB-231; assay: Antitumor activity against human MDA-MB-231 cells assessed as growth inhibition at 10 uM relative to control; type: functional; details: read-out: GI
Give measured inhibition of growth at 10 µM for each item. Keep answers brief.

Endpoint output: inhibition of growth at 10 µM of N#Cc1c(-c2ccc(Cl)cc2)nc(N/N=C/c2ccco2)nc1N1CCOCC1 . Value?
25.5%

Endpoint output: inhibition of growth at 10 µM of N#Cc1c(-c2ccc(Cl)cc2)nc(N/N=C/c2cccc(F)c2)nc1N1CCOCC1 . Value?
< 1%

Endpoint output: inhibition of growth at 10 µM of CSc1nc(Cl)c(C#N)c(-c2ccc(Cl)cc2)n1 . Value?
< 1%

Endpoint output: inhibition of growth at 10 µM of N#Cc1c(-c2ccc(Cl)cc2)nc(NN)nc1N1CCOCC1 . Value?
14.5%

Endpoint output: inhibition of growth at 10 µM of N#Cc1c(-c2ccc(Cl)cc2)nc(N/N=C/c2cccc(Br)c2)nc1N1CCOCC1 . Value?
< 1%

Endpoint output: inhibition of growth at 10 µM of N#Cc1c(-c2ccc(Cl)cc2)nc(N/N=C/c2ccc[nH]2)nc1N1CCOCC1 . Value?
20.3%

Endpoint output: inhibition of growth at 10 µM of N#Cc1c(-c2ccc(Cl)cc2)[nH]c(=S)[nH]c1=O . Value?
< 1%

Endpoint output: inhibition of growth at 10 µM of N#Cc1c(-c2ccc(Cl)cc2)nc(N/N=C2/C(=O)Nc3ccccc32)nc1N1CCOCC1 . Value?
< 1%

Endpoint output: inhibition of growth at 10 µM of N#Cc1c(-c2ccc(Cl)cc2)nc(N/N=C2/C(=O)Nc3ccc(Br)cc32)nc1N1CCOCC1 . Value?
14.2%

Endpoint output: inhibition of growth at 10 µM of N#Cc1c(-c2ccc(Cl)cc2)nc(N/N=C/c2cccc([N+](=O)[O-])c2)nc1N1CCOCC1 . Value?
17.6%

Endpoint output: inhibition of growth at 10 µM of N#Cc1c(-c2ccc(Cl)cc2)nc(N/N=C2/C(=O)Nc3ccc(Cl)cc32)nc1N1CCOCC1 . Value?
17.1%
